In this section, each of the binders is paired with its reported OD 490 nm.
# measuredTarget: T1, IL-6R-Fc 항원 (human, UniProt P08887 20-365, limits assumed)
# T1 construct: domain: IL-6R full domain; Made in-house as IL-6R-Fc; also called IL-6R full; IL-6R full domain인 단백질; not shown: Fc part (vector pYK 604)
# T1 sequence (looked up): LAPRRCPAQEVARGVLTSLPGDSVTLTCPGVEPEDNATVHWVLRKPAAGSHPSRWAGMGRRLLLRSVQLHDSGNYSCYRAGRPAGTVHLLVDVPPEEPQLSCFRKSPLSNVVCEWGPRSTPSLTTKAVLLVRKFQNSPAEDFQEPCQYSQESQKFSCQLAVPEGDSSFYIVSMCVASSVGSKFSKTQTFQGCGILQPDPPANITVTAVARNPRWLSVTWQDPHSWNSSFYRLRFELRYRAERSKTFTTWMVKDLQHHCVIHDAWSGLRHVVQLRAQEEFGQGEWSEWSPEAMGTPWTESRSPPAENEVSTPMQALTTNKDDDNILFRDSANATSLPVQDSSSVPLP
# test: ELISA; IL-6R coated 100 ng/well; IgG at 0.78125 nM; anti-Fab-HRP
Respond numerically; units are OD490 and should not be typed.

Please review the entries below; each comes with its answer.
항 IL-6R 단클론 항체 F2 (antibody, V domains shown) VH: QVQLVESGAEVKKPGASVKVSCKASGYTFTNYYMHWVRQAPGQGLEWMGIINPSGGNTGYAQKFQGRVTMTRDMSTSTAYMELSSLRSEDTAVYYCARGLPWGENGLDVWGQGTTVTVSS VL: SQLVLTQPSSVSGAPGQTVTISCTGSSSNIGAGYDVHWYQQLPGTAPKVLIYGDSDRPSGVPDRFSGSKSATSASLAITGLQAEDEADYYCQSYDSSLSAYVFGTGTKVTVL	1.9
항 IL-6R 단클론 항체 D2 (antibody, V domains shown) VH: QVQLVESGAEVKKPGSSVKVSCKGSGDTFPNYAINWVRQAPGQGPEWMGRIIPMLGTSDYAEKFQGRVTITADKSTNTAYMGLNSLRSEDTAVYYCVKGPRYYGTDSYYLEKWGQGTMVTVSS VL: SQLVLTQPPSVSGAPGQTVTISCTGPTIGAGYDVHWYQQLPGAAPKLLIYGNLNRPSGVPDRFSGSKSGTSASLAITDLQAEDEADYYCHTYDSSLSGSWVFGGGTKLTVL	0.479
항 IL-6R 단클론 항체 B10 (antibody, V domains shown) VH: QVQLVESGGGLVQPGGSLRLSCAASGFIFDDYAMFWVRQVPGKGLEWVAGINWNGNGIGYGDSVRGRFIISRDNARNSLDLQMNSLRAEDTAVYYCARPSLYGGNSEFDLWGQGTLVTVSS VL: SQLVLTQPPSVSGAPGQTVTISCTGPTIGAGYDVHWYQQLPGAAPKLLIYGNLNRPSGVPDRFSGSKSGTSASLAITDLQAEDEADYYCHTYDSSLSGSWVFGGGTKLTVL	0.5

Would you kindly look at the next entry?
Problem: Please give measured OD 490 nm of the following entry: 항 IL-6R 단클론 항체 A7 (antibody, V domains shown) VH: QMQLVESGGGLVQPGTSLRLSCAASGFKFEDYAMHWVRQAPGKGLEWVSGVSWNSGTIAYVDSVKGRFTISRDNAKNSLYLQMNSLRAEDTAVYYCARDFTYFYESSGYYAFDLWGQGTMVTVSS VL: SQLVLTQPPSVSGAPGQRVTISCTGTNSNIGAGYDVHWYQQVPGTTPKLLIYGNTNRPSGVPDRFSGSKSGTSASLAITGLQAEDGGDYYCQSFDSSLTGSVFGTGTKVTVL
Result: 0.782

Entry source: patent KR20130126543A
